test system: BT-549 breast; assay: NCI-60 one-dose screen, 48 h; details: 10 µM unless noted
The panel holds about 83,000 compounds, 20% with a hit somewhere; the sample as a whole holds those more often. Calls of active or inactive are those of the source. How the source made its calls: active means growth percent below 10; inactive means the rest.
Outcome codes: active, inactive

{"molecule": "ClC1=C(Cl)C(Cl)=C(Cl)C1=C/C=C/c1ccccc1", "group": "active"}
{"molecule": "O=C(NN(C(=O)c1ccccc1)c1cccs1)c1ccccc1", "group": "inactive"}
{"molecule": "COc1cc(/C=C/C(=O)Nc2ccc3c(c2)/C(=C\\c2cccn2C)C(=O)N3)cc(OC)c1OC", "group": "inactive"}
{"molecule": "COc1ccc(-n2nc3c(c2-c2ccc(OC)c(OC)c2)-c2oncc2CC3)cc1", "group": "inactive"}
{"molecule": "Clc1ncn[nH]1", "group": "inactive"}
{"molecule": "C/C(=C\\CCc1ccsc1)CC/C=C(\\C)CCCN1CCN(CCO)CC1", "group": "inactive"}
{"molecule": "CN(C)c1ccc(/C=C(\\C#N)c2nc3ccccc3c(=O)[nH]2)cc1", "group": "inactive"}
{"molecule": "C[n+]1ccc(C#N)c2ccccc21", "group": "inactive"}
{"molecule": "N#CCCN(CCO)c1ccccc1", "group": "inactive"}
{"molecule": "COc1ccc(-c2csc(NC(=O)c3cc(O)c(O)c(O)c3)n2)cc1", "group": "inactive"}
{"molecule": "COc1ccc(C2=NNC(c3cc(Cc4ccc(O)c(C5CC(c6ccc(OC)cc6)=NN5)c4)ccc3O)C2)cc1 (stereo not drawn)", "group": "inactive"}
{"molecule": "Cc1nn(-c2ccc(Br)cc2)c2nc3c(nc12)C(=O)C(=O)c1ccccc1-3", "group": "inactive"}
{"molecule": "CC[C@]1(O)CC2CN(CCc3c([nH]c4ccccc34)[C@@](C(=O)OC)(c3cc4c(cc3OC)N(C)[C@H]3[C@@](O)(C(=O)OC)[C@H](OC(C)=O)[C@]5(CC)C=CCN6CC[C@]43[C@@H]65)C2)C1 (stereo partly drawn)", "group": "inactive"}
{"molecule": "COc1ccc(-c2cc(Cc3cccs3)c(=O)n(Cn3cncn3)n2)cc1", "group": "inactive"}
{"molecule": "COc1ccc(/C=C2\\COc3ccc(O)c(O)c3C2=O)cc1OC", "group": "inactive"}
{"molecule": "O=C(C(=O)N1CCCCC1)c1ccc(OC2OC(CO)C(O)C(O)C2O)cc1 (stereo not drawn)", "group": "inactive"}
{"molecule": "c1ccc(-c2nnc(Nc3nnc(-c4ccccc4)s3)s2)cc1", "group": "inactive"}
{"molecule": "O=[P@@]1(c2ccccc2)O[C@H](COCc2ccccc2)[C@@H](OCc2ccccc2)[C@H](OCc2ccccc2)[C@H]1NCc1ccccc1", "group": "active"}
{"molecule": "CCCCCCOc1ccc(/C=N/NC(N)=S)cc1", "group": "active"}
{"molecule": "Cc1[nH]n(C(N)=S)c(=O)c1N=Nc1ccc(F)c(Cl)c1", "group": "inactive"}
{"molecule": "O=C1CC(=O)N(c2ccccc2)O1", "group": "inactive"}
{"molecule": "COc1ccc2c(c1)C(=O)/C(=C/c1cccc(OCC(=O)c3ccccc3)c1)CC2", "group": "inactive"}
{"molecule": "NCCCc1nnc(CCC(=O)c2nc3ccccc3[nH]2)o1", "group": "inactive"}
{"molecule": "O=C(Nc1cccc2ccccc12)c1cc2c(cc1Br)OCO2", "group": "inactive"}
{"molecule": "COc1ccc(-c2cnnn2-c2cc(OC)c3c(c2)OCO3)cc1", "group": "inactive"}
{"molecule": "Cc1cccc(Cl)c1NC(=O)c1ccc2nc(NC(=O)NC3CC(C)(C)NC(C)(C)C3)sc2c1", "group": "inactive"}
{"molecule": "O=C1/C(=N/O)CCc2ccccc21", "group": "inactive"}
{"molecule": "CCC1=C(c2ccc(OC)cc2)C(C)(C)Oc2cc(O)c(CN3CCCC3)cc21", "group": "inactive"}
{"molecule": "COc1ccc(COC(C)=O)cc1", "group": "inactive"}
{"molecule": "CC(O)c1nc2c(c(=O)n(C)c(=O)n2C)n1C (stereo not drawn)", "group": "inactive"}
{"molecule": "COc1ccc(C2CC(c3ccc(OC)c(OC)c3)=NN2C(=O)c2cc(OC)c(OC)c(OC)c2)cc1 (stereo not drawn)", "group": "inactive"}
{"molecule": "COc1ccc(-c2cncn2-c2ccc(-c3nc4cc(OC)c(OC)c(OC)c4s3)cc2)cc1N", "group": "inactive"}
{"molecule": "COC(=O)[C@]1(C(C)C)N[C@H](c2cn(-c3ccccc3)nc2-c2ccccc2)[C@@H]2C(=O)N(c3ccc(Cl)cc3)C(=O)[C@@H]21", "group": "inactive"}
{"molecule": "O=C(O)c1ccc(NC(=O)c2cccc(Nc3ccnc(C(F)(F)F)c3)c2)cc1", "group": "inactive"}
{"molecule": "COc1ccc(C(=O)C(C)Br)cc1OC (stereo not drawn)", "group": "inactive"}
{"molecule": "CN(CC(=O)Nc1nc2ccccc2[nH]1)S(=O)(=O)c1ccc(Cl)cc1", "group": "inactive"}
{"molecule": "S=C1SCN(Cc2ccccc2)CN1Cc1ccco1", "group": "inactive"}
{"molecule": "N#Cc1c2ccccc2c2n1-c1ccccc1OC(c1ccccc1)C2=O (stereo not drawn)", "group": "active"}
{"molecule": "COc1ccc2nccc(/C=C/c3ccnc4ccc(OC)cc34)c2c1", "group": "inactive"}
{"molecule": "Fc1ccc([C@@H]2CCNC[C@H]2COc2ccc3c(c2)OCO3)cc1", "group": "inactive"}
{"molecule": "CC(c1cc(Cl)ccc1O)c1cc(Cl)ccc1O", "group": "inactive"}
{"molecule": "O=C1N(C2CCCCC2)C(=O)N1C1CCCCC1", "group": "inactive"}
{"molecule": "O=C(Oc1ccc[nH]c1=O)c1cccc(Cl)c1", "group": "inactive"}
